Origin of values: the Human Domainome abundance scans (Beltran et al. 2025)

Recorded abundance fitness for the following variants
B1: Calcium-binding protein 2, residues 155 to 219; numbered along this chain, Q9NPB3 (parent)
chain: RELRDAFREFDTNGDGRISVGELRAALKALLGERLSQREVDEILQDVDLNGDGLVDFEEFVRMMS

variants of: B1; test: abundance fitness (aPCA) (normalised: wild type 0, dead -1); higher = more abundant; growth selection in yeast, the domain comes from the species named; settings: Homo sapiens
Answer as a number with no unit attached.

Requested read-out: abundance fitness. Entry: RELRDAFREFDTNGDGRISVGELRAALKALLGERLSQREVDEILFDVDLNGDGLVDFEEFVRMMS [Q45F]
-0.263

Please answer likewise for RELRDAFREFDTKGDGRISVGELRAALKALLGERLSQREVDEILQDVDLNGDGLVDFEEFVRMMS [N13K]
-0.676

Do the same for RELRDAFREFDTNGDGRISVGELRAALKALLGERLSQREVDEILQDVDLNGDGLVDFEEFYRMMS [V61Y] please
-0.013

What would you report for RELRDAFREFDTNGDGRISVGELRAALKALLGYRLSQREVDEILQDVDLNGDGLVDFEEFVRMMS [E33Y] ?
-0.119

RELRDAFREFDTNGDGRISVGELRAAYKALLGERLSQREVDEILQDVDLNGDGLVDFEEFVRMMS [L27Y] , same question.
-0.136

Further cases:
Recorded abundance fitness for RELRDAFREFDTNGDGRISVGELRAALKALLGERLSQREVDEILQDVDLNGDGLVDFEEFVRLMS [M63L] , please?
0.101

Query RELRDAFREFDTNGDGRISVGELRAALKALLGERLSQREVDEILQDVDLNGDGLVDFEEFFRMMS [V61F] next
-0.134

RELRDAFREFDTNGDGRISVGELRAALKALLGERLSQREVDEILQDVDLNGDWLVDFEEFVRMMS [G53W] , same question.
-0.361

Try the variant RPLRDAFREFDTNGDGRISVGELRAALKALLGERLSQREVDEILQDVDLNGDGLVDFEEFVRMMS [E2P]
-0.21

Then what about the variant RELRDAFREFDTNGDGRISVGELRAALKALLGERLSQREVDEILQDVDLNGDGLVDFEEFVRTMS [M63T] ?
0.102

And the next one, RELRDAFREFDTNGDGRISVGELRAALKALLGERLMQREVDEILQDVDLNGDGLVDFEEFVRMMS [S36M] ?
-0.092

Then RELRDAFREFDTNGDGRISVGELRAALKALLGERLSQREVDEILQDVDLNGDGLVSFEEFVRMMS [D56S] ?
0.078

Please do the same for RELRDAFREFDTNGDGRISVGELRAALKALLGERLSQREVDEILQDVDLNGDGLQDFEEFVRMMS [V55Q] as well.
-0.391
